Assay target: human sphingosine-1-phosphate receptor 1 (S1P1) (Homo sapiens)
Sequence (P21453 whole entry): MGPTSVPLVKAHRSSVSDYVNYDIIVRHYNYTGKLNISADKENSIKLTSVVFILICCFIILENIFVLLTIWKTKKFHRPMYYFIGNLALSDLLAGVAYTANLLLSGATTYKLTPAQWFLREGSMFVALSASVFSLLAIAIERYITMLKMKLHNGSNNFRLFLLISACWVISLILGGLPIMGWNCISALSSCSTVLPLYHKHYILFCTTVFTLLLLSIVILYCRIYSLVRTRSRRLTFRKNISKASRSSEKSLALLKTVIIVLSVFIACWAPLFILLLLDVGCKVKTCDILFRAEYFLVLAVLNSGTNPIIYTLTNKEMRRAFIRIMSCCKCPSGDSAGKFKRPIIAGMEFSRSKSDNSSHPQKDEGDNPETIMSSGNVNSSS
Assay details: Inhibition of cAMP production (HTRF cAMP HiRange), S1P1 CHO-K1 cells
Assay type: cell-based
Assay setup: inhibition of cAMP production, S1P1; read-out: hS1P1 CAMP pEC50 (converted)
Procedure: Stable clonal Chinese hamster ovary K1 (CHO-K1) cells co-expressing EA-β-arrestin2 and the human sphingosine-1-phosphate receptor 1 (NM_001400, S1P1) with a C-terminal Prolink™ tag were purchased from DiscoverX corporation (Cat #: 93-0207C2). […] Agonist-promoted G-protein responses were determined by measuring changes in intracellular cAMP using the HTRF® cAMP HiRange kit (CisBio, Cat #: 62AM6PEJ) based on time-resolved fluorescence resonance energy transfer (TR-FRET) technology. […]
Measurement name: EC50

- Structure smiles string: "Cc1ccncc1-c1nc(-c2ccc3c(c2)nnn3CC(C)(C)CO)no1"
  Observed value: "> 316 nM"
- Structure smiles string: "CC(C)n1nnc2cc(-c3cc(-c4ccccc4)n(C)c3)ccc21"
  Observed value: "> 316 nM"
- Structure smiles string: "CC(C)(O)Cn1nnc2cc(-c3nc(-c4ccncc4C(F)(F)F)no3)ccc21"
  Observed value: "> 316 nM"
- Structure smiles string: "CC(C)n1nnc2cc(-c3nc4c(ccc5sccc54)o3)ccc21"
  Observed value: "< 316 nM"
- Structure smiles string: "Cc1occc1-c1noc(-c2ccc3c(c2)nnn3C(C)C)n1"
  Observed value: "< 316 nM"
- Structure smiles string: "Cc1ccccc1-c1cc(-c2ccc3c(c2)nnn3C(C)C)c[nH]1"
  Observed value: "> 316 nM"
- Structure smiles string: "CCC1(CC)CC(=O)c2cc(-c3nc(-c4ccn[nH]4)no3)ccc2O1"
  Observed value: "> 316 nM"
- Structure smiles string: "CCC1(CC)CC(=O)c2cc(-c3nc(-c4ccc(NC(C)=O)cc4OC)no3)ccc2O1"
  Observed value: "< 316 nM"
- Structure smiles string: "CC(C)Nc1ccc(-c2nnc(-c3ccc4[nH]c(=O)oc4c3)o2)cc1C#N"
  Observed value: "< 316 nM"
- Structure smiles string: "CC(C)n1nnc2cc(-c3nc4c(o3)COc3ccccc3-4)ccc21"
  Observed value: "< 316 nM"
- Structure smiles string: "CC(C)Nc1ccc(-c2nnc(-c3ccc4ncn(C)c4c3)o2)cc1C#N"
  Observed value: "< 316 nM"
- Structure smiles string: "CC(C)Nc1ccc(-c2ncc(-c3ccc4[nH]c(=O)[nH]c4c3)cn2)cc1C#N"
  Observed value: "< 316 nM"
- Structure smiles string: "COCCn1cc(-c2ccccc2C)cc1-c1ccc2c(c1)nnn2C(C)C"
  Observed value: "> 316 nM"
- Structure smiles string: "CCC1(CC)CC(=O)c2cc(-c3nc(-c4ccc5cnccc5c4)no3)ccc2O1"
  Observed value: "> 316 nM"
- Structure smiles string: "COc1ccc2oc(-c3ccc4c(c3)nnn4CC(C)C)nc2c1"
  Observed value: "< 316 nM"
- Structure smiles string: "COc1ccccc1-c1nc(-c2ccc3c(c2)nnn3C(C)(C)CO)no1"
  Observed value: "> 316 nM"
- Structure smiles string: "CCC1(CC)CC(=O)c2cc(-c3nc(-c4ccc5c(c4)CCC(=O)N5)no3)ccc2O1"
  Observed value: "< 316 nM"
- Structure smiles string: "CCC1(CC)CC(=O)c2cc(-c3nc(-c4cccnc4F)no3)ccc2O1"
  Observed value: "< 316 nM"

====

Assay target: sphingosine-1-phosphate receptor 5 (S1P5) (Homo sapiens)
Sequence (Q9H228 whole entry): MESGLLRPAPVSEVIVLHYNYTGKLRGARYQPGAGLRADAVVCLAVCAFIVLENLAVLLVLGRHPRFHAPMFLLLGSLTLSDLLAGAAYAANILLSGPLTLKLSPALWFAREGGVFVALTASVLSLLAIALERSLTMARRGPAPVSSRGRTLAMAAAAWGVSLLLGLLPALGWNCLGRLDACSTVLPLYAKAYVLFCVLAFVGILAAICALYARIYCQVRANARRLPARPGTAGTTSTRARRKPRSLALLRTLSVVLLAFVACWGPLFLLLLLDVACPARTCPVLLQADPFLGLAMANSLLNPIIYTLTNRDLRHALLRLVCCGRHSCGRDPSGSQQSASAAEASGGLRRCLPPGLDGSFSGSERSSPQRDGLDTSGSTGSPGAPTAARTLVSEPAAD
Assay details: Selectivity: inhibition of cAMP production (HTRF), S1P5 CHO-K1 cells
Format: cell-based
Assay setup: CHO-K1; efficacy normalized to maximal efficacy of fimgolimod; read-out: hS1P5 cAMP SPAN
Measurement name: Emax

- Structure smiles string: "CCC1(CC)CC(=O)c2cc(-c3nc(-c4ccc5[nH]ncc5c4)no3)ccc2O1"
  Assay target: "sphingosine-1-phosphate receptor 5 (S1P5) (Homo sapiens)"
  Observed value: "< 50%"
- Structure smiles string: "CC(C)n1nnc2cc(-c3nc4c(o3)Cc3ccccc3-4)ccc21"
  Assay target: "sphingosine-1-phosphate receptor 5 (S1P5) (Homo sapiens)"
  Observed value: "< 50%"
- Structure smiles string: "Cc1ccncc1-c1noc(-c2ccc3c(c2)nnn3C2CCC2)n1"
  Assay target: "sphingosine-1-phosphate receptor 5 (S1P5) (Homo sapiens)"
  Observed value: "< 50%"
- Structure smiles string: "C=CCNc1ccc(-c2nc(-c3cn[nH]c3)no2)cc1C#N"
  Assay target: "sphingosine-1-phosphate receptor 5 (S1P5) (Homo sapiens)"
  Observed value: "> 50%"
- Structure smiles string: "COc1ccc(-c2noc(-c3ccc4c(c3)nnn4CC(C)(C)O)n2)c(C)c1"
  Assay target: "sphingosine-1-phosphate receptor 5 (S1P5) (Homo sapiens)"
  Observed value: "< 50%"

====

Assay target: human sphingosine-1-phosphate receptor 1 (S1P1) (Homo sapiens)
Assay details: Inhibition of cAMP production (HTRF cAMP HiRange), S1P1 CHO-K1 cells
Type: cell-based
Assay setup: inhibition of cAMP production; potency; read-out: hS1P1 CAMP pEC50 (converted)
Measurement name: EC50

- Structure smiles string: "COc1ccccc1-c1nnc(-c2ccc3c(c2)nnn3C(C)C)s1"
  Measurement name: "EC50"
  Observed value: "> 316 nM"
- Structure smiles string: "N#Cc1cc(-c2nc(-c3ccc4c(c3)CCC(=O)N4)no2)ccc1NCC(F)F"
  Measurement name: "EC50"
  Observed value: "< 316 nM"
- Structure smiles string: "CC(C)n1ncc2cc(-c3nc(-c4cccc5c4OCO5)no3)ccc21"
  Measurement name: "EC50"
  Observed value: "< 316 nM"
- Structure smiles string: "Cc1cncc(-c2nc(-c3ccc4c(c3)nnn4C(C)C)no2)c1"
  Measurement name: "EC50"
  Observed value: "> 316 nM"
- Structure smiles string: "COc1ccccc1-c1nnc(-c2ccc3c(c2)oc(=O)n3C)o1"
  Measurement name: "EC50"
  Observed value: "> 316 nM"
- Structure smiles string: "c1ccc(-c2noc(-c3ccc4c(c3)nnn4C3CCCC3)n2)cc1"
  Measurement name: "EC50"
  Observed value: "> 316 nM"
- Structure smiles string: "COc1ccccc1-c1noc(-c2ccc3c(c2)nnn3C(C)(C)C)n1"
  Measurement name: "EC50"
  Observed value: "< 316 nM"
- Structure smiles string: "Cc1ccccc1-c1noc(-c2ccc3c(c2)CCC(=O)N3C)n1"
  Measurement name: "EC50"
  Observed value: "> 316 nM"
- Structure smiles string: "CC(C)Nc1ccc(-c2nc(-c3ccc4c(c3)CC(=O)N4)no2)cc1C#N"
  Measurement name: "EC50"
  Observed value: "< 316 nM"
- Structure smiles string: "CC(C)n1ccc2cc(-c3nc(-c4ccccc4OC(F)(F)F)no3)ccc21"
  Measurement name: "EC50"
  Observed value: "> 316 nM"
- Structure smiles string: "Oc1ccc(-c2noc(-c3ccc4c(c3)nnn4C3CCCC3)n2)cc1"
  Measurement name: "EC50"
  Observed value: "< 316 nM"
- Structure smiles string: "CC(C)n1ncc2cc(-c3nc(-c4cccc5c4OCCC5)no3)ccc21"
  Measurement name: "EC50"
  Observed value: "< 316 nM"
- Structure smiles string: "Clc1ncccc1-c1noc(-c2ccc3c(c2)nnn3CC2CC2)n1"
  Measurement name: "EC50"
  Observed value: "> 316 nM"
- Structure smiles string: "CC(C)n1nnc2cc(-c3nc(-c4ccccc4Cl)no3)ccc21"
  Measurement name: "EC50"
  Observed value: "< 316 nM"
- Structure smiles string: "CC(C)n1nnc2cc(-c3nnc(-c4ccccc4O)s3)ccc21"
  Measurement name: "EC50"
  Observed value: "< 316 nM"
- Structure smiles string: "CCC1(CC)CC(=O)c2cc(-c3nnc(-c4ccc5c(c4)nnn5C(C)C)s3)ccc2O1"
  Measurement name: "EC50"
  Observed value: "> 316 nM"
- Structure smiles string: "CCC1(CC)CC(=O)c2cc(-c3nc(-c4ccccc4C)no3)ccc2O1"
  Measurement name: "EC50"
  Observed value: "< 316 nM"
- Structure smiles string: "CC(C)n1nnc2cc(-c3nc(-c4ccccc4F)co3)ccc21"
  Measurement name: "EC50"
  Observed value: "> 316 nM"
- Structure smiles string: "Cc1ccncc1-c1noc(-c2ccc3nnn(CC(C)C)c3c2)n1"
  Measurement name: "EC50"
  Observed value: "< 316 nM"
- Structure smiles string: "CC(C)n1nnc2cc(-c3noc(-c4ccc(F)cc4)n3)ccc21"
  Measurement name: "EC50"
  Observed value: "> 316 nM"
- Structure smiles string: "Brc1ccccc1-c1nc(-c2ccc3[nH]nnc3c2)no1"
  Measurement name: "EC50"
  Observed value: "> 316 nM"
- Structure smiles string: "CCC1(CC)CC(=O)c2cc(-c3nc(-c4ccc(C)s4)no3)ccc2O1"
  Measurement name: "EC50"
  Observed value: "> 316 nM"
- Structure smiles string: "COc1ccc(-c2coc(-c3ccc4c(c3)nnn4C(C)C)n2)cc1"
  Measurement name: "EC50"
  Observed value: "> 316 nM"
- Structure smiles string: "Cc1nc(-c2ccccc2)oc1-c1cnc2c(c1)CC(=O)N2"
  Measurement name: "EC50"
  Observed value: "> 316 nM"
- Structure smiles string: "O=C1CC2(CCCC2)Oc2ccc(-c3nc(-c4cccnc4)no3)cc21"
  Measurement name: "EC50"
  Observed value: "> 316 nM"
- Structure smiles string: "CC(C)n1ccc2cc(-c3nc(-c4cccc5c4OCO5)no3)ccc21"
  Measurement name: "EC50"
  Observed value: "> 316 nM"
- Structure smiles string: "FC(F)(F)c1cccc(-c2nc(-c3ccc4c(c3)nnn4C3CCCC3)no2)c1"
  Measurement name: "EC50"
  Observed value: "> 316 nM"
- Structure smiles string: "CCC1(CC)CC(=O)c2cc(-c3nc(-c4ccc(Cl)cc4)no3)ccc2O1"
  Measurement name: "EC50"
  Observed value: "> 316 nM"
- Structure smiles string: "N#Cc1cc(-c2nc(-c3ccc4c(c3)CCC(=O)N4)no2)ccc1N"
  Measurement name: "EC50"
  Observed value: "> 316 nM"
- Structure smiles string: "COc1cccc(-c2nc(-c3ccc4[nH]ccc4c3)ns2)c1"
  Measurement name: "EC50"
  Observed value: "> 316 nM"
- Structure smiles string: "O=C1CCOc2ccc(-c3nc(-c4cccnc4)no3)cc21"
  Measurement name: "EC50"
  Observed value: "> 316 nM"
- Structure smiles string: "N#Cc1cc(-c2nc(-c3ccc4c(c3)CCC(=O)N4)no2)ccc1NCC1CC1"
  Measurement name: "EC50"
  Observed value: "< 316 nM"
- Structure smiles string: "COc1cncc(-c2nc(-c3ccc4c(c3)nnn4C(C)C)no2)c1"
  Measurement name: "EC50"
  Observed value: "> 316 nM"
- Structure smiles string: "Brc1ccccc1-c1nc(-c2ccc3c(c2)nnn3C2CCCC2)no1"
  Measurement name: "EC50"
  Observed value: "< 316 nM"
- Structure smiles string: "CCC1(CC)CC(=O)c2cc(-c3nc(-c4cccnc4O)no3)ccc2O1"
  Measurement name: "EC50"
  Observed value: "> 316 nM"
- Structure smiles string: "COc1ccc(-c2noc(-c3ccc4c(c3)nnn4C3CCCC3)n2)c2ccccc12"
  Measurement name: "EC50"
  Observed value: "> 316 nM"
